Readings of Φf luminescence quantum yield for the listed molecules
- experiment notes: Fluorescence quantum yield
- Assay type: physicochemical
- applied conditions: DMSO, ligands excited at 503 nm, ruthenium complexes at 573 nm, relative to verteporfin
- Procedure: Emission spectra were measured in DMSO. The free ligands were excited at 503 nm, while the ruthenium complexes were excited at 573 nm. For the calculation of fluorescence quantum yield, verteporfin (Φf = 0.0085) was used as a reference.[46] […] A similar behavior has been observed in palladium(II) and nickel(II) metaloporphyrins, where the fluorescence was quenched due to electron or energy transfer.[49] […]
Express your answer as a number followed by its unit.

Requested read-out: Φf luminescence quantum yield. Entry: C=CC1=C(C)c2cc3[nH]c(cc4nc(cc5[nH]c(cc1n2)c(C)c5CCC(=O)OC)C(CCC(=O)OC)=C4C)c(C)c3C=C [compound 1]
0.80%

May I ask what Φf luminescence quantum yield has been recorded for C=Cc1c(C)c2cc3nc(cc4[nH]c(cc5nc(cc1[nH]2)C(C)=C5CCC(=O)OC)c(CCC(=O)OC)c4C)C1(C)C3=CCC(C(=O)OC)=C1C(=O)OC (stereo not drawn) [3A] ?
1.2%

Quick one: Φf luminescence quantum yield for C=CC1=C(C)c2cc3[nH]c(cc4nc(cc5[nH]c(cc1n2)c(C)c5CCC(=O)OCc1ccccc1)C(CCC(=O)OCc1ccccc1)=C4C)c(C)c3C=C [compound 2] ?
0.80%

* * *

Entries and their IC50
- System: AGS gastric cancer cells
- experiment notes: MTT survival assay, dark or white-light irradiation
- Type: cell-based, human
- applied conditions: Homo sapiens, AGS, 8 h incubation, kept in dark, MTT after 48 h, N = 3, read-out: IC50 dark

Solved cases below.
compound	tested system	IC50
C=CC1=C(C)c2cc3[nH]c(cc4nc(cc5[nH]c(cc1n2)c(C)c5CCC(=O)O)C(CCC(=O)O)=C4C)c(C)c3C=C	AGS gastric cancer cells	> 100 µM
C=Cc1c(C)c2cc3nc(cc4[nH]c(cc5nc(cc1[nH]2)C(C)=C5CCC(=O)OCc1ccccc1)c(CCC(=O)OCc1ccccc1)c4C)C1(C)C3=CCC(C(=O)OC)=C1C(=O)OC (stereo not shown)	AGS gastric cancer cells	> 100 µM
C=Cc1c(C)c2cc3nc(cc4[nH]c(cc5nc(cc1[nH]2)C1(C)C5=CCC(C(=O)OC)=C1C(=O)OC)c(C)c4CCC(=O)OCc1ccccc1)C(CCC(=O)OCc1ccccc1)=C3C (stereo not shown)	AGS gastric cancer cells	> 100 µM
C=CC1=C(C)c2cc3[nH]c(cc4nc(cc5[nH]c(cc1n2)c(C)c5CCC(=O)OC)C(CCC(=O)OC)=C4C)c(C)c3C=C	AGS gastric cancer cells	> 100 µM

For the compound shown here, C=Cc1c(C)c2cc3nc(cc4[nH]c(cc5nc(cc1[nH]2)C1(C)C5=CCC(C(=O)OC)=C1C(=O)OC)c(C)c4CCC(=O)OC)C(CCC(=O)OC)=C3C (stereo not shown) , give the reported IC50.
> 100 µM

I would be grateful if you could share the reported IC50 for C=Cc1c(C)c2cc3nc(cc4[nH]c(cc5nc(cc1[nH]2)C(C)=C5CCC(=O)OC)c(CCC(=O)OC)c4C)C1(C)C3=CCC(C(=O)OC)=C1C(=O)OC (stereo not shown) .
> 100 µM

Entry C=CC1=C(C)c2cc3[nH]c(cc4nc(cc5[nH]c(cc1n2)c(C)c5CCC(=O)OCc1ccccc1)C(CCC(=O)OCc1ccccc1)=C4C)c(C)c3C=C : reported IC50 = ?
> 100 µM

// data source = paper PMC12093383
